Hey, just so you know, these numbers are from patent US20230105029A1.

- measurement-target: T1, human IL4Rα expressed on 293F-IL4Rα cells (human, UniProt P24394 26-825)
- T1 construct: whole, on cells; also called cell surface human IL4Rα
- measurement-protocol: flow cytometry on 293F-IL4Rα cells, blocked ligand biotin human IL4
measured-metric: IC50 (nM)
Give bare numbers, in nM.

Lookup result for mouse antibody B8G11F2B7G5E8 (antibody, V domains shown, Mouse hybridoma mAb; also called Mouse B8G11F2B7G5E8; mAb B8G11F2B7G5E8) VH: EVQLQQSGADLVRPGASVKLSCTASGFNIKDTYMHWVKQRPEQGLEWVGRIDPTNGYTIYASKFQGKATITADTSSNTAYMQLSSLTSGDTAVYHCVSRRPWFAYWGQGTLVTVSA VL: DILMTQTPLSLPVSLGAQASISCRSSQSIVHSNGNTYLEWYLQKPGQSPKLLIYKVTNRFSGVPDRFSGSGSGTDFTLKISRVEAEDLGIYYCFQGSHVPYTFGGGTKLEIK ; measured IC50: 0.804
